- Test system: Ramos RA1 B cells
- Procedure details: Ramos FLIPR Assay (intracellular calcium flux, anti-human IgM stimulated)
- Type: cell-based
- Reported conditions: Homo sapiens, Ramos; Table 4; read-out: Example Ramos IC50
pIC50: −log10 of the molar value.
Observable: pIC50

The following compounds have reported results that may help.
| Compound | Observed result |
| --- | --- |
| C=CC(=O)N1CCc2c(cccc2-c2c(F)cc(C(N)=O)c3[nH]c4c(c23)CC(F)(F)CC4)C1 (single isomer, unassigned) | 7.64 |
| C=CC(=O)N1CCc2c(cccc2-c2c(F)cc(C(N)=O)c3[nH]c4c(c23)CCC(C(F)(F)F)C4)C1 (single isomer, unassigned) | 7.66 |
| C=CC(=O)N1CCOc2c(-c3c(F)cc(C(N)=O)c4[nH]c5ccccc5c34)cccc21 (single isomer, unassigned) | 8.16 |
| C=CC(=O)N1CCc2c(cccc2-c2c(F)cc(C(N)=O)c3[nH]c4cc(C(F)(F)F)ccc4c23)C1 (single isomer, unassigned) | 7.96 |
| C=CC(=O)N1CCc2c(cccc2-c2c(F)cc(C(N)=O)c3[nH]c4ccccc4c23)C1 (single isomer, unassigned) | 8.62 |
| C=CC(=O)N1CCSc2c(-c3c(F)cc(C(N)=O)c4[nH]c5ccccc5c34)cccc21 (single isomer, unassigned) | 8.11 |

I = C=CC(=O)N1CCc2c(cccc2-c2c(F)cc(C(N)=O)c3[nH]c4c(c23)CC[C@H](C(C)(C)O)C4)C1 (single isomer, unassigned)
II = C=CC(=O)N1CCCOc2c(-c3c(F)cc(C(N)=O)c4[nH]c5cc(C(F)(F)F)ccc5c34)cccc21 (single isomer, unassigned)
Between the entries labelled I and II , which has a larger pIC50 value on record? # reply format: chosen label
I
